Biological target: REFACTO® factor VIII-like polypeptide (amino acids 1-743 and 1638 through 2332 of human factor VIII) (human) (UniProt P00451)
Sequence (P00451 20-762, chain 1 of 2): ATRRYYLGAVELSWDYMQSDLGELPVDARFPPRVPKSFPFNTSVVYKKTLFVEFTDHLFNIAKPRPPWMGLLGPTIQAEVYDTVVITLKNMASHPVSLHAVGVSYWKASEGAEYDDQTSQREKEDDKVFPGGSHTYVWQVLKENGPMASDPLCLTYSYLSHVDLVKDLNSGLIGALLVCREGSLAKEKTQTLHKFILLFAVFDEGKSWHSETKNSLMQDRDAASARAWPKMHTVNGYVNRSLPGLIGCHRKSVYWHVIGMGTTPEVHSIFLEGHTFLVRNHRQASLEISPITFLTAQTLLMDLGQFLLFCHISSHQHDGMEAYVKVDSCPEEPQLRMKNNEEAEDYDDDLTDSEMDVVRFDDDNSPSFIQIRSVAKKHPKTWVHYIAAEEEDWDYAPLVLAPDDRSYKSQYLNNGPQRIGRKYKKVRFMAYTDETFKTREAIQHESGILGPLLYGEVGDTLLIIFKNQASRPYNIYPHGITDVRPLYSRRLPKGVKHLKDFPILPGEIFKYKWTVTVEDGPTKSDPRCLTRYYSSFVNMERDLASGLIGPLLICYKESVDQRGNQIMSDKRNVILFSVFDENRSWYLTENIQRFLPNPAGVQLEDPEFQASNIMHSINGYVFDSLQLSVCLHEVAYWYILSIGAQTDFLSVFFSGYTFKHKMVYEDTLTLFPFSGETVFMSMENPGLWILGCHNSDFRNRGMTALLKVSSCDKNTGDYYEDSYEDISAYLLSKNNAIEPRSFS
Sequence (P00451 1657-2351, chain 2 of 2): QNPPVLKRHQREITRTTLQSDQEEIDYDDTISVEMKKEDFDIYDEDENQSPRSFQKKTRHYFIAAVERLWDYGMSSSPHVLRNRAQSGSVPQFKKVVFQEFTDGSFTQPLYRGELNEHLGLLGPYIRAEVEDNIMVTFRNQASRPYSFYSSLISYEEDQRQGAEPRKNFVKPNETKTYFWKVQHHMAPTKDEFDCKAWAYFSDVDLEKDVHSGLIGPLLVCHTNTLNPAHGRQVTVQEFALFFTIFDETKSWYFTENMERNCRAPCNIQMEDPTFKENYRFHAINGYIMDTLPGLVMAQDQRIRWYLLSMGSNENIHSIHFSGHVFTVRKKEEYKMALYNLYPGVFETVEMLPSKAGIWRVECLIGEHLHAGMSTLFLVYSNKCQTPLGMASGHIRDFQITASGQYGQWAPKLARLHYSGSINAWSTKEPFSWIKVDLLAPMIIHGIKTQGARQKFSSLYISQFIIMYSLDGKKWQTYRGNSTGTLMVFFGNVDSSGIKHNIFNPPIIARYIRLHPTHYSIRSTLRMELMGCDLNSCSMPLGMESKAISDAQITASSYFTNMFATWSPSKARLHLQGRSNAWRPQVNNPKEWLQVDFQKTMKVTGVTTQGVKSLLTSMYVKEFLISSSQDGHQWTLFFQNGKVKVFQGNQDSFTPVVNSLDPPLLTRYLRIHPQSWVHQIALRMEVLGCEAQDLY
Experiment: phage ELISA
assay metric: R (ratio of the ELISA score with target present to the ELISA score without target)
Keep it simple and answer with nothing but the number.

Illustrative cases are given below, each with its answer.
FCWVFPFNHCD [TN9 isolate 02 (phage-displayed peptide, SEQ ID NO: 27)]
8
HPCGAWLRPCYN [TN8 isolate 08 (phage-displayed peptide, SEQ ID NO: 20)]
20
FCWVFQFRHCH [TN9/1 isolate … (SEQ ID NO: 77)]
8
RLCSWVSPCSA [TN7 isolate C5/G10 (phage-displayed peptide, SEQ ID NO: 9)]
10

Q: Param item = HRCGSWLHPCLA [TN8 isolate 11/G10 (phage-displayed peptide, SEQ ID NO: 21)] ; retrieve measured R (ratio of the ELISA score with target present to the ELISA score without target).
Result: 6

Q: Param item = HPCGSWLRPCLH [TN8 isolate 10 (phage-displayed peptide, SEQ ID NO: 10)] ; retrieve measured R (ratio of the ELISA score with target present to the ELISA score without target).
Result: 16

Q: Param item = HSCGSWLFPCFA [TN7 isolate A06 (phage-displayed peptide, SEQ ID NO: 4)] ; retrieve measured R (ratio of the ELISA score with target present to the ELISA score without target).
Result: 10

Q: Param item = FCWVFPFQHCA [TN9 isolate 09 (phage-displayed peptide, SEQ ID NO: 29)] ; retrieve measured R (ratio of the ELISA score with target present to the ELISA score without target).
Result: 24

Q: Param item = HPCGSWFRPCFH [TN8 isolate 02 (phage-displayed peptide, SEQ ID NO: 14)] ; retrieve measured R (ratio of the ELISA score with target present to the ELISA score without target).
Result: 16

Q: Param item = HACGSWFRPCHA [TN8 isolate 07 (phage-displayed peptide, SEQ ID NO: 15)] ; retrieve measured R (ratio of the ELISA score with target present to the ELISA score without target).
Result: 6
